Assay: Zibotentan and dapagliflozin blood concentrations, Experiment 2
Settings: male, Wistar, rat, in vivo, 30 mg/kg, Zibotentan blood concentration, Exp 2; Zibo 30 mg/kg p.o. QD; 4 hr post first dose
OUTCOME_MEASURE: concentration at 4 h (µM)
Report only the number, with the unit µM understood.

Task item: Can you share its concentration at 4 h? I mean this compound: "COc1nc(C)cnc1NS(=O)(=O)c1cccnc1-c1ccc(-c2nnco2)cc1"
Reply: 61.1

* * *

Assay: Zibotentan and dapagliflozin blood concentrations, Experiment 2
Conditions: male, Wistar, rat, whole blood, oral, 3 mg/kg, Dapagliflozin blood concentration, Exp 2; Dapa 3 mg/kg p.o. QD; 24 hr post first dose
OUTCOME_MEASURE: concentration at 24 h (µM)
Report only the number, with the unit µM understood.

Task item: Can you share its concentration at 24 h? I mean this compound: CCOc1ccc(Cc2cc([C@@H]3O[C@H](CO)[C@@H](O)[C@H](O)[C@H]3O)ccc2Cl)cc1 [Dapa]
Reply: 0.086

* * *

Test: Zibotentan and dapagliflozin blood concentrations, Experiment 2
Conditions: male, Wistar, rat, in vivo, 100 mg/kg, Zibotentan blood concentration, Exp 2; Zibo 100 mg/kg p.o. QD 7 days; 24 hr post last dose
OUTCOME_MEASURE: concentration at 24 h
Kindly format the answer as number then unit.

Task item: Can you share its concentration at 24 h? I mean this compound: COc1nc(C)cnc1NS(=O)(=O)c1cccnc1-c1ccc(-c2nnco2)cc1 [Zibo]
Reply: 136 µM

* * *

Test: Zibotentan blood concentrations, Experiment 1
Assay type: in vivo, male Wistar rats
Details: male, Wistar, rat, whole blood, oral, 100 mg/kg, Exp 1; Zibo 100 mg/kg p.o. QD; 24 hr post first dose
OUTCOME_MEASURE: concentration at 24 h

Task item: Can you share its concentration at 24 h? I mean this compound: "COc1nc(C)cnc1NS(=O)(=O)c1cccnc1-c1ccc(-c2nnco2)cc1"
Reply: 39.1 µM

* * *

Assay: Zibotentan and dapagliflozin blood concentrations, Experiment 2
Settings: male, Wistar, rat, whole blood, oral, 3 mg/kg, Dapagliflozin blood concentration, Exp 2; Dapa 3 mg/kg p.o. QD 7 days; 24 hr post last dose
OUTCOME_MEASURE: concentration at 24 h (nM)
Report only the number, with the unit nM understood.

Task item: Can you share its concentration at 24 h? I mean this molecule: "CCOc1ccc(Cc2cc([C@@H]3O[C@H](CO)[C@@H](O)[C@H](O)[C@H]3O)ccc2Cl)cc1"
Reply: 48

* * *

Assay: Zibotentan blood concentrations, Experiment 1
Type: in vivo, male Wistar rats
Conditions: male, Wistar, rat, whole blood, oral, 300 mg/kg, Exp 1; Zibo 300 mg/kg p.o. QD; 4 hr post first dose
OUTCOME_MEASURE: concentration at 4 h (µM)
Report only the number, with the unit µM understood.

Task item: Can you share its concentration at 4 h? I mean this compound: COc1nc(C)cnc1NS(=O)(=O)c1cccnc1-c1ccc(-c2nnco2)cc1 [Zibo]
Reply: 247

* * *

Assay: Zibotentan and dapagliflozin blood concentrations, Experiment 2
Conditions: male, Wistar, rat, in vivo, 30 mg/kg, Zibotentan blood concentration, Exp 2; Zibo 30 mg/kg p.o. QD; 24 hr post first dose
OUTCOME_MEASURE: concentration at 24 h (µM)
Report only the number, with the unit µM understood.

Task item: Can you share its concentration at 24 h? I mean this compound: "COc1nc(C)cnc1NS(=O)(=O)c1cccnc1-c1ccc(-c2nnco2)cc1"
Reply: 7.8
